Origin of values: patent US20260132127A1

Target: human TRH-DE (Homo sapiens, UniProt Q9UKU6)
Sequence (Q9UKU6 1-1069): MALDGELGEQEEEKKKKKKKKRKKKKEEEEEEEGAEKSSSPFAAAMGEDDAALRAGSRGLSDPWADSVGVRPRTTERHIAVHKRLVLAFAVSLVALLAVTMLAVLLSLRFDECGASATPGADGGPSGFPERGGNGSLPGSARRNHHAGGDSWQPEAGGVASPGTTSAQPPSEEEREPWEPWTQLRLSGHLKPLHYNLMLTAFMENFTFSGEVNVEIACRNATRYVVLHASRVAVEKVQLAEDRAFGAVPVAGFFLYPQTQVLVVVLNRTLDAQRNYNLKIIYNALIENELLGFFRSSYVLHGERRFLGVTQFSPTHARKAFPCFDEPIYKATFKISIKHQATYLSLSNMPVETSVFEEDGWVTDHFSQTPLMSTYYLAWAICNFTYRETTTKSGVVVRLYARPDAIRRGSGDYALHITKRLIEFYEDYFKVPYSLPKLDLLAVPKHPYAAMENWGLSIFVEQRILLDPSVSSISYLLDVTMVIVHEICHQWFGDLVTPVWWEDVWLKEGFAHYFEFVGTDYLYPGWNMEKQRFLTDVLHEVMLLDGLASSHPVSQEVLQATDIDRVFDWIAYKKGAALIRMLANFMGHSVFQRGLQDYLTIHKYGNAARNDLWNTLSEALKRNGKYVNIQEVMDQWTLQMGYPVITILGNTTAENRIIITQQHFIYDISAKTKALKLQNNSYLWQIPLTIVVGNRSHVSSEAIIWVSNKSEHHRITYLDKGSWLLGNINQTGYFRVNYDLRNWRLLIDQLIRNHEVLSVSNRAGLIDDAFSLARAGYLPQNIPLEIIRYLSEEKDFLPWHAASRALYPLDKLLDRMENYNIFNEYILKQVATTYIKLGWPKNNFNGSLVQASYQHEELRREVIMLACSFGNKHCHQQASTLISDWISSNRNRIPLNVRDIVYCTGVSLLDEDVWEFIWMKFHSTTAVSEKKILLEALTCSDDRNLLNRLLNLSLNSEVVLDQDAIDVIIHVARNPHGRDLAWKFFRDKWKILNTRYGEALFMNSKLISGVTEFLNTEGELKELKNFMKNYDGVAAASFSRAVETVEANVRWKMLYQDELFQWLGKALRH
I'd appreciate it if you could supply pIC50 values for the items below.
# pIC50 is unitless: minus log10 of the molar concentration; print number only

Ask: Specify the recorded pIC50 for `C[C@@H]1CNc2ncc(C(F)(F)F)cc2C(=O)N1C1CC2(C1)CN(S(=O)(=O)c1ccccc1F)C2` , system: human TRH-DE (Homo sapiens, UniProt Q9UKU6).
Result: 8.52

Ask: Specify the recorded pIC50 for `CCCN(C(=O)c1ccnc2[nH]ccc12)C1CC2(C1)CN(S(=O)(=O)c1cc(C)ccc1F)C2` , system: human TRH-DE (Homo sapiens, UniProt Q9UKU6).
Result: 7.85

Ask: Specify the recorded pIC50 for `CCN1C[C@@H](C)N(C2CC3(C2)CN(S(=O)(=O)c2ccccc2F)C3)C(=O)c2ncccc21` , system: human TRH-DE (Homo sapiens, UniProt Q9UKU6).
Result: 8.70

Ask: Specify the recorded pIC50 for CC1CCc2nc(C(F)(F)F)sc2C(=O)N1C1CC2(C1)CN(S(=O)(=O)c1ccccc1F)C2 (single isomer, unassigned) [Example 352] , system: human TRH-DE (Homo sapiens, UniProt Q9UKU6).
Result: 7.96

Ask: Specify the recorded pIC50 for CC1CCc2nc(C(F)(F)F)sc2C(=O)N1C1CC2(C1)CN(S(=O)(=O)c1ccccc1F)C2 (racemic) [Example 92] , system: human TRH-DE (Homo sapiens, UniProt Q9UKU6).
Result: 7.92

Ask: Specify the recorded pIC50 for `C[C@@H]1COc2nc(C3CC3)ccc2C(=O)N1C1CC2(C1)CN(S(=O)(=O)c1ccccc1F)C2` , system: human TRH-DE (Homo sapiens, UniProt Q9UKU6).
Result: 8.70

Ask: Specify the recorded pIC50 for `C[C@@H]1COc2c(noc2C2CC2)C(=O)N1C1CC2(C1)CN(S(=O)(=O)c1ccccc1F)C2` , system: human TRH-DE (Homo sapiens, UniProt Q9UKU6).
Result: 7.77
